- targetUnderTest: Glutamate receptor ionotropic, AMPA (Rattus norvegicus, UniProt P19490+P19491+P19492+P19493)
Entries and their pIC50 values follow.
The read-out pIC50 is expressed as -log10 of concentration in moles per litre.

# annotated cases, reported pIC50 shown
>>> datavalue("O=c1c2cc(F)ccc2nc(/C=C(\\O)c2ccccn2)n1-c1ccccc1Cl")
6.60
>>> datavalue("Cc1ccc(C#N)c(/C(O)=C/c2nc3ccc(F)cc3c(=O)n2-c2ccccc2Cl)n1")
8.03
>>> datavalue("N#Cc1cccnc1/C(O)=C/c1nc2ccc(F)cc2c(=O)n1-c1ccccc1Cl")
7.85
>>> datavalue("O=c1c2ccccc2nc(/C=C(\\O)c2ccncc2)n1-c1ccccc1Cl")
6.43
>>> datavalue("N#Cc1ccccc1/C(O)=C/c1nc2ccc(F)cc2c(=O)n1-c1ccccc1Cl")
6.89

Data request: Value lookup for pIC50; key = O=c1c2ccccc2nc(/C=C(\O)c2ccccn2)n1-c1ccccc1Cl
Data returned: 6.31

Data request: Value lookup for pIC50; key = Cc1cccc(/C(O)=C/c2nc3ccc(F)cc3c(=O)n2-c2ccccc2Cl)n1
Data returned: 5.26

Data request: Value lookup for pIC50; key = CC1=NN=C(c2ccc(N)cc2)c2cc3c(cc2C1)OCO3 [GYKI-52466]
Data returned: 4.66

====

- targetUnderTest: Glutamate receptor ionotropic, AMPA (Rattus norvegicus, UniProt P19490+P19491+P19492+P19493)
readoutKind: IC50

# annotated cases, reported IC50 shown
>>> datavalue("Cc1ccccc1-n1c(C)nc2ccccc2c1=O")
"> 10 µM"
>>> datavalue("Cc1nc2ccccc2c(=O)n1-c1ccccc1Cl")
"> 10 µM"

Data request: Value lookup for IC50; key = O=c1c2cc(F)ccc2nc(/C=C(\O)c2ccccc2F)n1-c1ccccc1Cl
Data returned: > 30 µM
